molecular target: UniProt P27361
Sequence (P27361 whole entry): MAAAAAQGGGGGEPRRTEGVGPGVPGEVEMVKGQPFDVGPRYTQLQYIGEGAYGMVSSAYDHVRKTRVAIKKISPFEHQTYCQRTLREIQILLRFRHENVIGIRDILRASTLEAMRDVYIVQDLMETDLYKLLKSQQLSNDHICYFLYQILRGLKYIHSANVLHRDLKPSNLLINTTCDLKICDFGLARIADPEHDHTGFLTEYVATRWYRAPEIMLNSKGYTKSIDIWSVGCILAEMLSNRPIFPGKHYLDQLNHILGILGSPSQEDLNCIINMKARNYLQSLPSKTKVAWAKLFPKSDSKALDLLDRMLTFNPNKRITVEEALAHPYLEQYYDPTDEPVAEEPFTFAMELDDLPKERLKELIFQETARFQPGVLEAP
measurementLabel: IC50 (nM)
// units = nM; emit number, no label

(Q) Item "Cc1cccc(CN2C(=O)c3nc(-c4nc(Nc5ccnn5C)ncc4C)sc3C2(C)C)n1" has what recorded IC50?
(A) 1.2

----------
assay: In vivo PK study in SD rats; details: rat, plasma, oral; male SD rats, 1 mg/kg intravenously / 10 mg/kg orally; read-out: F % (oral bioavailability)
measurementLabel: bioavailability

(Q) Item Cc1cccc(CN2C(=O)c3nc(-c4nc(Nc5ccnn5C)ncc4C)sc3C2(C)C)n1 [WX001] has what recorded bioavailability?
(A) 21%

----------
assay: In vivo PK study in mice; settings: mouse, plasma; female BALB/c mice, single administration
measurementLabel: half-life (h)
// units = h; emit number, no label

(Q) Item "Cc1cccc(CN2C(=O)c3nc(-c4nc(Nc5ccnn5C)ncc4C)sc3C2(C)C)n1" has what recorded half-life?
(A) 1.29
